# study.target: T1, TCE-30 (anti-CD3 scFv R237A; anti-TROP2 wt)
# T1 construct: scFv on the Fab heavy chain
# assay.notes: competition ELISA, TCE on captured CD3
Where no end group is shown, it is not given here.
measured.endpoint: pIC50
By convention, pIC50 is the negative base-10 log of a molar concentration.

Prompt: Please give the measured pIC50 for this binder: VYCGPEFDESVGCA (cysteine pairing not given here; also: biotinylated, site not given here, mask peptide for the CD3 scFv) [Peptide-73]
Response: 6.85
